# Test system: RXRa homodimer (NR concentration 180 nM)
# PROCEDURE_DETAILS: PBM binding z-score (relative to random genomic background probes); higher = stronger binding; sequences stand for … in GC…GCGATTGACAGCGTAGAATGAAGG
Binned PBM binding z-score; ranges: low band (below 1), middle band (1 to below 3), high band (3 or more)

Tag the class for "CCTATTAGTTGACCATAAGGGCAACCGTAGCTCG"
low band

Note, next up: "CTACCAATGTGAACAAGGTCGTTGATTACTATTC"
middle band

Note, next up: "ATATGTAGGTTATCGGGTCATTTAGTTTGCGCAT"
high band

New cases:
Tag the class for "CCGACTGGGGCAAAGGTTACCAGACTCAGTACGA"
high band

Note, next up: "TTACCAAGGTGATAGGTCGTTGATGCACGCCTTG"
middle band

Note, next up: "GCTACTGGGGCATCAGCAGGTTACCATAACTTAA"
low band

Note, next up: "GCTAGGTGGTCAGTAAAAGGTCACACACCGGTCG"
high band

Note, next up: "GCTTGTATATCAAGGTTAAGAAAGACTAAGCTAA"
low band
